SYSTEM TESTED: T1, human CD3 E&D complex protein (Sino Biological Inc., CT026H0323H) (human, UniProt P07766 23-126; P04234 22-105)
T1 construct: bought heterodimer; also called human CD3 protein (CT026H0323H)
T1 sequence (P07766 23-126, chain 1 of 2): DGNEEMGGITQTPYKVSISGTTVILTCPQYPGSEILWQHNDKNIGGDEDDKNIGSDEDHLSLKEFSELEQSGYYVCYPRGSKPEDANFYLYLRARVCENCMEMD
T1 sequence (P04234 22-105, chain 2 of 2): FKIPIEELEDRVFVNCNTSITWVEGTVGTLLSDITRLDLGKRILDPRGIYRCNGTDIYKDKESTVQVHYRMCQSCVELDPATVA
TEST SUMMARY: BLI, antibody on sensor
List of kon values.
Note: unit M⁻¹ s⁻¹ is implicit; provide only the numeric part.

Reference set, count: 2
hzsp34.79 (antibody, human IgG1, lambda, L234A L235A, V domains shown, CDR mutant of hzsp34.24; IgG1 L234A L235A, lambda) VH: EVQLVESGGGLVQPGGSLKLSCAASGFTFNGYAMNWVRQASGKGLEWVGRIRSKYNNYATYYADSVKDRFTISRDDSKSTLYLQMNSLKTEDTAVYYCARHGNFGQSYVSWFAYWGQGTTVTVSS VL: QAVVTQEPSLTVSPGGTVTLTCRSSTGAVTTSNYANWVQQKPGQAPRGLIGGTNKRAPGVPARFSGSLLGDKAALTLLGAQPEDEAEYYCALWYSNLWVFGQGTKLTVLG ... 233000
hzsp34.86 (antibody, human IgG1, lambda, L234A L235A, V domains shown, CDR mutant of hzsp34.24; IgG1 L234A L235A, lambda) VH: EVQLVESGGGLVQPGGSLKLSCAASGFTFNTYAMNWVRQASGKGLEWVGRIRSKYNNYATYYADSVKDRFTISRDDSKSTLYLQMNSLKTEDTAVYYCARAGNFGQSYVSWFAYWGQGTTVTVSS VL: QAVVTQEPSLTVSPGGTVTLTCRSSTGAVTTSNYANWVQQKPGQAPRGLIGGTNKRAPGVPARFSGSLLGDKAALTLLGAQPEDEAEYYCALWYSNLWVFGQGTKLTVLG ... 255000

Lookup result for hzsp34.89 (antibody, human IgG1, lambda, L234A L235A, V domains shown, CDR mutant of hzsp34.24; IgG1 L234A L235A, lambda) VH: EVQLVESGGGLVQPGGSLKLSCAASGFTFNTYAMNWVRQASGKGLEWVGRIRSKYNNYATYYADSVKDRFTISRDDSKSTLYLQMNSLKTEDTAVYYCARHGNAGQSYVSWFAYWGQGTTVTVSS VL: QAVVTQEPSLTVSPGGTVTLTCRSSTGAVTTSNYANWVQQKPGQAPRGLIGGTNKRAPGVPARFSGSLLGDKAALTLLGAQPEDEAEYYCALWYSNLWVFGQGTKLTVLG ; measured kon: 142000

Every entry's value here was drawn from patent US20230374132A1.
